# Tested on: M21
# Protocol text: Cell cycle arrest in human M21 cells assessed as accumulation at G0/G1 phase at 2 to 5 times IC50 measured after 24 hrs by DAPI staining based flow cytometry (reference value: 65.5%)
# Assay type: functional
Property: Activity (%)

COc1cc(OS(=O)(=O)c2ccc(N3CCCC3=O)cc2)cc(OC)c1OC
8.3
COc1cc(OC)cc(OS(=O)(=O)c2ccc(N3CCCC3=O)cc2)c1
32.7
COc1cc(NS(=O)(=O)c2ccc(N3CCCC3=O)cc2)cc(OC)c1
43.1
